- Test method notes: Concentrations of 1 in mouse serum and tissue samples by LC-MS/MS
- Format: in vivo, C57BL/6 mice
- Experimental conditions: female, C57BL/6, mouse, liver, heart, kidney, spleen, other: subcutaneous or intravenous, 24 mg/kg
Measurement type: concentration at 1 h

For the molecule CCC(NC(=O)[C@H](CC(C)C)NC(=O)OCc1ccccc1)C(=O)C(=O)NCCCN1CCOCC1 (stereo partly drawn) [Compound 1, Cbz-Leu-D,L-Abu-CONH-(CH2)3-morpholine] , report concentration at 1 h.
> 500 ng/g
